subject_of_test: Beta-lactamase (Pseudomonas aeruginosa (strain ATCC 15692 / PAO1 / 1C / PRS 101 / LMG12228)) (UniProt P24735)
Sequence (P24735 27-397 limits assumed): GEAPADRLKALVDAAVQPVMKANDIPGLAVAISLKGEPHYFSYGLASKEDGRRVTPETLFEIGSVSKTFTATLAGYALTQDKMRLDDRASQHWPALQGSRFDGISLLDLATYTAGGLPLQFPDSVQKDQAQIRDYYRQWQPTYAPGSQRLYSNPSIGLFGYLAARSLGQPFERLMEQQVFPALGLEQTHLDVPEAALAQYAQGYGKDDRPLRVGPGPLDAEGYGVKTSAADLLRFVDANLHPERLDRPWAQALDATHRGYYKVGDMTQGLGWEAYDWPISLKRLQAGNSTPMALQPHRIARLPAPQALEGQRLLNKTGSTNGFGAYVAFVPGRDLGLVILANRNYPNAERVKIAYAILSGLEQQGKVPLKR
method_summary: Ratio of Kcat to Km of Pseudomonas aeruginosa 18SH AmpC assessed as drug hydrolysis by spectrophotometry relative to cephaloridine
Design: scale not given: the % may be the effect or the level left
Please go through the items and note down their Activity.
Answers are plain numbers, in %.

smiles_str | Activity [%]
Nc1nc(/C(=N/O)C(=O)N[C@@H]2C(=O)N3C(C(=O)O)=C(/C=C4\CCN([C@@H]5CCNC5)C4=O)CS[C@H]23)ns1 | 0.71
CO/N=C(\C(=O)N[C@@H]1C(=O)N2C(C(=O)[O-])=C(C[N+]3(C)CCCC3)CS[C@H]12)c1csc(N)n1 | 0.5
CC1(C)S[C@@H]2[C@H](NC(=O)Cc3ccccc3)C(=O)N2[C@H]1C(=O)O | 61

Here's the next entry for you.
Can you look up the measured Activity of CC(C)(O/N=C(\C(=O)N[C@@H]1C(=O)N2C(C(=O)[O-])=C(C[n+]3ccccc3)CS[C@H]12)c1csc(N)n1)C(=O)O for me?
0.83
